Recorded Ki by entry
Molecular target: Wee1 kinase (Homo sapiens, UniProt P30291)
Construct: purchased Carnabio 05-177
Sequence (P30291 whole entry): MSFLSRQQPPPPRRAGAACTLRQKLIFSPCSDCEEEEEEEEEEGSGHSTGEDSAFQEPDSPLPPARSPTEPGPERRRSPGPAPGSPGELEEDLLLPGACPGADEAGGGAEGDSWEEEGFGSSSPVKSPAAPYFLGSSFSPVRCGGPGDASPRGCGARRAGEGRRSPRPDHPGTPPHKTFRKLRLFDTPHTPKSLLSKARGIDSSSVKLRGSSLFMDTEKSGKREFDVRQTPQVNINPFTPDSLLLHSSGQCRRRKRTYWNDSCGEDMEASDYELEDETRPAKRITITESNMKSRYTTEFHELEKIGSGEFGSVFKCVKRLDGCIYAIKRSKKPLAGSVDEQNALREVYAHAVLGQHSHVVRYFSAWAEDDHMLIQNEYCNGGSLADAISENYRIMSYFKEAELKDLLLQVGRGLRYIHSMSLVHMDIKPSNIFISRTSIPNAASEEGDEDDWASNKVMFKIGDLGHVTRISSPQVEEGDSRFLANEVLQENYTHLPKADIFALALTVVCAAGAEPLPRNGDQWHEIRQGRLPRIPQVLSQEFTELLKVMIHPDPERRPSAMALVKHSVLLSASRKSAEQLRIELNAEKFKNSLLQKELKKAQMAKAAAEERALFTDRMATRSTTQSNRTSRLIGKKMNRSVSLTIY
Assay: Wee1 time-resolved fluorescence equilibrium binding assay (probe displacement)
Conditions: GST-tagged-Wee1 kinase 2 nM, fluorescent probe 300 nM, 1 hour incubation; read-out: Wee-1 binding (Ki nM)
Procedure: Wee1 kinase was assayed using a time-resolved fluorescence equilibrium binding assay monitoring displacement of a rapidly reversible Oregon Green-labeled ATP-competitive kinase probe (N-(2-(2-(2-(4-(4-(5-chloro-4-(2-(1-hydroxycyclobutyl)thiazol-5-yl)-1H-pyrrolo[2,3-b]pyridin-2-yl)phenyl)piperazin-1-yl)ethoxy)ethoxy)ethyl)-2′,7′-difluoro-3′,6′-dihydroxy-3-oxo-3H-spiro[isobenzofuran-1,9′-xanthene]-5-carboxamide) by competitive Wee1 inhibitors.
# output: bare number, implied unit nM

Examples from the recorded data:
Endpoint output: Ki of CN1CCN(C2Cc3ccc(Nc4ncc5c(=O)c(-c6c(Cl)cccc6Cl)cn(C)c5n4)cc3C2)CC1 (stereo not shown) . Value? 0.9

Which Ki reading was recorded for the compound `CN1Cc2cc(Nc3ncc4c(=O)c(-c5c(F)cccc5Cl)c[nH]c4n3)ccc2C2(CC2)C1` ? 0.7

Give its Ki value. Item: `CN1CCN(c2ccc(Nc3ncc4c(=O)c(-c5c(F)cccc5Cl)cn(C)c4n3)cc2)CC1` 1.5

Continuing:
Fill in the blank: the reported Ki of `Cn1cc(-c2c(Cl)cccc2Cl)c(=O)c2cnc(Nc3ccc(N[C@@H]4CCNC4)cc3)nc21` is ____. 0.7

// Ki lookup, key: `CN1CCN(c2ccc(Nc3ncc4c(=O)c(-c5c(Cl)cccc5Cl)cn(-c5ccncc5)c4n3)cc2)CC1` 0.6

Reported Ki, compound `Cn1cc(-c2c(Cl)cccc2Cl)c(=O)c2cnc(Nc3ccc4c(c3)C(=O)NC4=O)nc21` : ____ 27

Entry `Cn1cc(-c2c(Cl)cccc2Cl)c(=O)c2cnc(Nc3ccc4c(c3)CNCC43CC3)nc21` : reported Ki = ? 0.3

Given the entry `COc1ccc(Cn2cc(-c3c(F)cccc3Cl)c(=O)c3cnc(Nc4ccc5c(c4)CN(C)CC54CC4)nc32)cc1` , report its measured Ki. 33

Suppose we examine the compound `CN1CCc2ccc(Nc3ncc4c(=O)c(-c5c(Cl)cccc5Cl)cn(C)c4n3)cc2C1` ; what Ki value has been reported? 0.5

So what's the measured Ki for this one? `Cn1cc(-c2c(Cl)cccc2Cl)c(=O)c2cnc(Nc3ccc(NC4CCNCC4)cc3)nc21` 0.4

What value of Ki has been recorded for this entry: CN(C)C1Cc2ccc(Nc3ncc4c(=O)c(-c5c(Cl)cccc5Cl)cn(C5CC5)c4n3)cc2C1 (stereo not shown) 1.2

Field request: Ki | item: `CN1Cc2cc(Nc3ncc4c(=O)c(-c5c(Cl)cccc5Cl)c[nH]c4n3)ccc2C(C)(C)C1` 0.2

Quick one: Ki of `Cn1cc(-c2c(Cl)cccc2Cl)c(=O)c2cnc(Nc3cc4c(s3)CCNC4)nc21` ? 0.4

Please report the recorded Ki for `CN1CCN(c2ccc(Nc3ncc4c(=O)c(-c5c(Cl)cccc5Cl)c[nH]c4n3)cc2)CC1` . 0.3

Bench note: what Ki did `Cn1cc(-c2c(Cl)cccc2Cl)c(=O)c2cnc(Nc3ccc4c(c3)CNC4)nc21` show? 0.8

Fill in: Ki of `CN1CCN(c2ccc(Nc3ncc4c(=O)c(-c5ccccc5Cl)c(-c5ccccc5)[nH]c4n3)cc2)CC1` is ___ 37

----------
Each record here notes measured log10 of Ki.
Target: Wee1 kinase (Homo sapiens, UniProt P30291)
Construct: purchased Carnabio 05-177
Test: Wee1 time-resolved fluorescence equilibrium binding assay (probe displacement)
Conditions: GST-tagged-Wee1 kinase 2 nM, fluorescent probe 300 nM, 1 hour incubation; read-out: Wee-1 binding (Ki nM)
Values reflect log10 of reported Ki (nM).

Quick one: log10 of Ki of CN1CCC(Oc2ccc(Nc3ncc4c(=O)c(-c5c(Cl)cccc5Cl)cn(C)c4n3)cc2)CC1 [Example 68] ? -0.40

Please report the recorded log10 of Ki for CN1CCN(c2ccc(Nc3ncc4c(=O)c(-c5c(Cl)cccc5Cl)cn(CC(F)(F)F)c4n3)cc2)CC1 [Example 11] . 0.48

Entry CN1CCN(c2ccc(Nc3ncc4c(=O)c(-c5c(Cl)cccc5Cl)cn(C5CCC5)c4n3)cc2)CC1 [Example 15] has what log10 of Ki? -0.22

Suppose we examine the compound Cn1cc(-c2c(Cl)cccc2Cl)c(=O)c2cnc(Nc3ccc(N4CCOCC4)cc3)nc21 [Example 48] ; what log10 of Ki value has been reported? 0.23

Value lookup for log10 of Ki; key = Cc1cc(Nc2ncc3c(=O)c(-c4c(Cl)cccc4Cl)cn(C)c3n2)ccc1N1CCCN(C)CC1 [Example 19] -0.52

// moving on: another record for log10 of Ki
GET /values?readout=log10 of Ki&item= CN1CCN(c2ccc(Nc3ncc4c(=O)c(-c5ccccc5Cl)c[nH]c4n3)cc2)CC1 [Example 1] 0.98

----------
Recorded Ki by entry
Target: Wee1 kinase (Homo sapiens)
Construct: purchased Carnabio 05-177
Experiment: Wee1 time-resolved fluorescence equilibrium binding assay (probe displacement)
Details: GST-tagged-Wee1 kinase 2 nM, fluorescent probe 300 nM, 1 hour incubation; read-out: Wee-1 binding (Ki nM)

Any idea what Ki came out for CN(C)C1Cc2ccc(Nc3ncc4c(=O)c(-c5c(Cl)cccc5Cl)c[nH]c4n3)cc2C1 (centres unmarked) [Example 41] on Wee1 kinase (Homo sapiens)? 0.4 nM

Entry CN1Cc2cc(Nc3ncc4c(=O)c(-c5c(Cl)cccc5Cl)cn(C)c4n3)ccc2C(C)(C)C1 [Example 20] , system Wee1 kinase (Homo sapiens): what Ki was measured? 0.3 nM

Look up Ki with Wee1 kinase (Homo sapiens) for this compound: Cn1cc(-c2c(F)cccc2Cl)c(=O)c2cnc(Nc3ccc(NC4CCNCC4)cc3)nc21 [Example 73] 2.8 nM

I'm curious: which Ki was measured for CN1Cc2cc(Nc3ncc4c(=O)c(-c5c(Cl)cccc5Cl)c[nH]c4n3)ccc2C2(CC2)C1 [Example 30] tested on Wee1 kinase (Homo sapiens)? 0.2 nM

Report Ki for CN(C)C1Cc2ccc(Nc3ncc4c(=O)c(-c5c(Cl)cccc5Cl)cn(C)c4n3)cc2C1 (centres unmarked) [Example 22] tested on Wee1 kinase (Homo sapiens). 0.6 nM
